- SYSTEM_TESTED: Tyrosine-protein phosphatase non-receptor type 7 (Homo sapiens)
- ASSAY_INFO: HePTP phosphatase inhibition by analogues, SAR follow-up, selectivity assay for VHR1 inhibitor project, biochemical, DiFMUP fluorescence (AID 2082)
- MEASUREMENT_CONTEXT: recombinant HePTP
pIC50: −log10 of the molar value.
Outcome: t for pIC50 of at least 6; f for anything lower.

query: Could you verify whether the entry O=C1/C(=C/c2cn(-c3ccccc3)nc2-c2ccc(OCc3ccc(Cl)cc3)cc2)SC(=S)N1CCS(=O)(=O)O shows pIC50 of no less than 6?
result: t

query: Could you verify whether the entry O=C1/C(=C/c2cn(-c3ccccc3)nc2-c2ccc(S(=O)(=O)N3CCCCC3)cc2)SC(=S)N1CCS(=O)(=O)O shows pIC50 of no less than 6?
result: f

====

Provide the recorded IC50 for the entries that follow.
- SYSTEM_TESTED: UniProt P35236
- Sequence (P35236 whole entry, looked up): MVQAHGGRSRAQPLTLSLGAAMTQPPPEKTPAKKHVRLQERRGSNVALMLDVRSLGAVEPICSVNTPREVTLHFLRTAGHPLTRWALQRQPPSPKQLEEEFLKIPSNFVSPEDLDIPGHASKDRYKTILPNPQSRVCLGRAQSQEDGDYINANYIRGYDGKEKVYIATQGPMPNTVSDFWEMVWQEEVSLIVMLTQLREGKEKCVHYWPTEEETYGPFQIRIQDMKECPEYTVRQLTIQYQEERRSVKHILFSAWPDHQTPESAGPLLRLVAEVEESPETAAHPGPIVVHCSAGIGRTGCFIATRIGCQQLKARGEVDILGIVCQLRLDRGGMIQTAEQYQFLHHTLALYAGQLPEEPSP
- ASSAY_INFO: HePTP phosphatase inhibition by analogues, SAR follow-up, selectivity assay for VHR1 inhibitor project, biochemical, DiFMUP fluorescence (AID 2082)
- MEASUREMENT_CONTEXT: recombinant HePTP

query: Specify IC50 for O=C1/C(=C/c2cn(-c3ccccc3)nc2-c2ccc(OCc3ccccc3Cl)cc2)SC(=S)N1CCS(=O)(=O)O , system UniProt P35236.
result: 1.2 µM

query: Specify IC50 for O=C1/C(=C/c2cn(-c3ccccc3)nc2-c2ccc(OCc3ccccc3)cc2)SC(=S)N1CCS(=O)(=O)O , system UniProt P35236.
result: 1.5 µM

query: Specify IC50 for O=C1/C(=C/c2cn(-c3ccccc3)nc2-c2ccc(OCc3ccccc3F)cc2)SC(=S)N1CCS(=O)(=O)O , system UniProt P35236.
result: 0.87 µM

Data provenance: PubChem BioAssay AID2082
